Quick list: KD (Relative value) per entry.
Assayed system: T1, human GPVI extracellular region-human Fc fusion protein (hGPVI-hFc) (human)
T1 construct: Expressed in COS-1, purified on Protein A; also called GPVI-HHH-hFc; hGPVIHHH-hFc
T1 sequence (chain, as listed by the source limits assumed): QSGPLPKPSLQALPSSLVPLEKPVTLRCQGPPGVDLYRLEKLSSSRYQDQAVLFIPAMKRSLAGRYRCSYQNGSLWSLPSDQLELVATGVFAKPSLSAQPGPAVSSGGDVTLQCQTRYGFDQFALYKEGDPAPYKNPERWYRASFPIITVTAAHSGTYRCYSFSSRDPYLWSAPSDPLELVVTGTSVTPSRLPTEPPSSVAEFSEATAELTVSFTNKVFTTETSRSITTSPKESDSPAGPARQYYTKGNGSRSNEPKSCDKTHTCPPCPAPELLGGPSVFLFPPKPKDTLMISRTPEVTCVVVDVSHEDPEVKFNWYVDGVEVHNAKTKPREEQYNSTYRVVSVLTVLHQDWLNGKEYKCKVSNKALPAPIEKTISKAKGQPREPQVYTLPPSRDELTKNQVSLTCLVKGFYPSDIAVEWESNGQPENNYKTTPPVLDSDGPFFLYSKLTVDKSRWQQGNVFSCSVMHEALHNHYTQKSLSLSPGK
Assay summary: SPR BIACORE 3000 as in Example 5

# Binder, KD (Relative value)
measured = [
    ("F1249-20-1 (antibody, V domains shown, mouse hybridoma monoclonal antibody) VH: QVQLQQSGAELVRPGVSVKISCKGSGYTFTDYAMHWVKQSHAKSLEWIGVISTYYGDTSYNQKFKGKATMTVDKSSSTAYMELARLTSEDSAIYYCARAEDYDPWFAYWGQGTLVTVSA VL: DIVLTQSPASLAVSLGQRATISCRASESVDSYGNSFMYWYQQKPGQPPKLLIYRASNLESGIPARFSGSGSRTDFTLTINPVEADDVATYYCQQSDEDPLTFGAGTKLELKR", "0.00205 relative to F1232-37-2 = 1"),
    ("F1245-7-1 (antibody, V domains shown, mouse hybridoma monoclonal antibody) VH: QVQLQQPGAELVKPGASVKLSCKASGYTFTSYWMHWVKQRPGQGLEWIGMIHPNSGSTNYNEKFKSKATLTVDKSSSTAYMQLSSLTSEDSAVYYCASPVTAVVEYYFDYWGQGTTLTVSS VL: SIVMTQTPKFLLVSAGDRVTITCKASQSVSNDVAWYQQKPGQSPKLLIYYASNRYTGVPDRFTGSGYGTDFTFTISTVQAEDLAVYFCQQDYSSLTFGSGTKLEIKR", "0.00293 relative to F1232-37-2 = 1"),
    ("F1249-3-2 (antibody, V domains shown, mouse hybridoma monoclonal antibody) VH: EVQLVESGGGLVKPGGSLKLSCAASGFTFSSYGMSWVRQTPDKRLEWVATISSGGSYTYYSDSVKGRFTISRDNAKNNLYLQLSSLKSQDTAIYYCARDSGYFDYWGQGTTLTVSS VL: NIVLTQSPASLAVSLGQRATISCRASESVDSYGNSFMHWYQQKPGQPPKLLIYLASNLESGVPARFSGSGSRTDFTLTIDPVEADDAATYYCQQNNEDPRTFGGGTKLEIKR", "1.59 relative to F1232-37-2 = 1"),
]
